I'd appreciate it if you could supply MG-MID values for the items below.
experiment: Full panel mean-graph midpoint (MG-MID)
Give bare numbers, in µM.

Example results:
CN1C/C(=C\c2cccs2)C2=NN(c3ccccc3)C(c3cccs3)C2C1 (configuration not stated)    72.9
COc1ccc(/C=C2\CN(C)CC3C2=NN(c2ccccc2)C3c2ccc(OC)cc2)cc1 (configuration not stated)    72.9
Cc1ccc(/C=C2\CN(C)CC3=C2OC(N)=C(C#N)C3c2ccc(C)cc2)cc1 (configuration not stated)    51.1
COc1ccc(/C=C2\CN(C)CC3=C2N=C(S)NC3c2ccc(OC)cc2)cc1 (configuration not stated)    4.9
CN1CC2=C(OC(N)=C(C#N)C2c2cccs2)/C(=C/c2cccs2)C1 (configuration not stated)    57.8
Cc1ccc(/C=C2\CN(C)CC3C2=NN(c2ccccc2)C3c2ccc(C)cc2)cc1 (configuration not stated)    81

The record that follows has no MG-MID shown yet.
Query: Item COc1ccc(/C=C2\CN(C)CC3=C2OC(N)=C(C#N)C3c2ccc(OC)cc2)cc1 (configuration not stated) has what recorded MG-MID?
Result: 85.6
